Molecular target: T1, BANP CC-BEN (ΔDBD) (human, UniProt Q8N9N5 1-360)
T1 sequence: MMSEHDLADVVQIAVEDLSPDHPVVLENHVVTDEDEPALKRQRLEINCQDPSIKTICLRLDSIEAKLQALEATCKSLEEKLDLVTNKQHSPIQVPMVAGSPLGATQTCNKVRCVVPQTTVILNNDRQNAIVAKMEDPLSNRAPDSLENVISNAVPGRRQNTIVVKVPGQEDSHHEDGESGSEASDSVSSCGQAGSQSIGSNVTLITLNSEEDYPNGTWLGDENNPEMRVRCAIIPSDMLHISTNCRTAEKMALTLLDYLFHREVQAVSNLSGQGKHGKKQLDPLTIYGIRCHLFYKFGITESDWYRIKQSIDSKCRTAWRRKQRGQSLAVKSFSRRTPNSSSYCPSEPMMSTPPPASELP
Assay: ITC; ITC: 20 mM Tris pH 7.5, 200 mM NaCl, 2 mM beta-mercaptoethanol, 20 C; EMSA: 20 mM Tris pH 7.0, 200 mM NaCl, 2 mM DTT, 4 C, 1.2% agarose in TAE
Conditions: protein: recombinant; tags: His-SUMO or His-MBP, cleaved; blunt, self-complementary
Measured Kd, listed per entry for reference.
Could you give me the number in µM? Just the number is fine.

• 12-CGCG (dsDNA) DNA 1: ATCTCGCGAGAT DNA 2: ATCTCGCGAGAT = 2.9

Retrieve Kd measured for 12-mCGCG (dsDNA, 5-methyl-C at position 5 of each strand (palindrome; called hemi-methylated, one CpG methylated)) DNA 1: ATCTCGCGAGAT DNA 2: ATCTCGCGAGAT and print it.
4.3
